# measurement-description: BET inhibitor-based combinations targeting novel dependencies in MECOM-rearranged (r) AML: OCI-AML3 cell line (AID 2202232); also: nearly all actives have a fitted effect of over 35% in size
# condition-parameters: CellTiter-Glo luminescence, 48 h; OCI-AML3 viability; series mostly up to 46 µM
Results filed as inconclusive are left out. The source made the active and inactive calls. Calls follow the shape of the dose curve; as a rule, active = well fitted inhibition curve with a large enough effect; inconclusive = small, poorly fitted or top-dose-only effect; inactive = no such curve, though single readings can be large or run the other way.
I would appreciate it if you answered using one of these outcomes: active, inactive

Below, 3 molecules whose answers are already recorded.
molecule	assigned-class
COc1nnc2ccc(N3CCC(c4ccc(OCCN5CCN(C)C(=O)[C@H]5C)cc4)CC3)nn12	active
CN(CCOc1ccc(C[C@H](Nc2ccccc2C(=O)c2ccccc2)C(=O)O)cc1)c1ccccn1	inactive
NC1CCCN(c2c(/C=C3\SC(=O)NC3=O)cccc2-c2ccccc2)C1 (stereo not given)	active

Query string: Each molecule tested received a call. Report the one for "CCN[C@H]1C[C@H](C)S(=O)(=O)c2sc(S(N)(=O)=O)cc21" .
Result string: inactive

Query string: Each molecule tested received a call. Report the one for "O=C(/C=C/c1ccc(CN(CCO)CCc2c[nH]c3ccccc23)cc1)NO" .
Result string: active

* * *

# measurement-description: BET inhibitor-based combinations targeting novel dependencies in MECOM-rearranged (r) AML: HNT-34 cell line (AID 2202234); also: nearly all actives have a fitted effect of over 35% in size
# condition-parameters: HNT-34 AML viability, CellTiter-Glo luminescence, 48 h; series mostly up to 46 µM
Inconclusive results are not listed. Active and inactive are the calls of the source. The call rests on the fitted dose curve; in most records, active means well fitted inhibition curve with a large enough effect; inconclusive means small, poorly fitted or top-dose-only effect; inactive means no such curve, though single readings can be large or run the other way.
I would appreciate it if you answered using one of these outcomes: active, inactive

compound	assigned-class
Nc1nc(=S)c2[nH]cnc2[nH]1	active
COc1ccc(S(=O)(=O)N[C@@H](CNc2nc(C)nc(N3CCC(c4ccc5c(n4)NCCC5)CC3)c2C)C(=O)O)cc1	inactive
COc1cccc2c1C(=O)c1c(O)c3c(c(O)c1C2=O)C[C@@](O)(/C(CO)=N/NC(=O)CCCCCN1C(=O)C=CC1=O)C[C@@H]3O[C@H]1C[C@H](N)[C@H](O)[C@H](C)O1	active
CNCCCOc1cc(F)c(-c2c(Cl)nc3ncnn3c2N[C@@H](C)C(F)(F)F)c(F)c1	active
CCCNC(=O)[C@H]1O[C@@H]1C(=O)N[C@H](C(=O)N1CCC[C@H]1C(=O)OC)C(C)CC (stereo partly drawn)	active
CC(=O)N[C@H]1CSSC[C@@H](C(N)=O)NC(=O)[C@H](C(C)C)NC(=O)[C@H](C)NC(=O)[C@H](Cc2cnc[nH]2)NC1=O	inactive
O=C(NCc1ccccc1)c1csc(Nc2ccncn2)n1	active

Please examine the following record next.
Query string: Each compound tested received a call. Report the one for "Cc1ccc(S(=O)(=O)Nc2cc(C(F)(F)F)ccc2C(=O)Nc2nc(-c3ccccc3)cs2)cc1" .
Result string: active

* * *

# measurement-description: qHTS for Inhibitors of the Aldehyde Dehydrogenase Family (ALDH1A2, ALDH1A3, ALDH2, ALDH3A1) (AID 2061307); also: nearly all actives have a fitted effect of over 50% in size
# condition-parameters: ALDH inhibition qHTS; series mostly up to 50.3 µM
Inconclusive results are not listed. Active and inactive are the calls of the source. Calls come from the whole dose curve; as a rule, active = well fitted inhibition curve with a large enough effect; inconclusive = small, poorly fitted or top-dose-only effect; inactive = no such curve, though single readings can be large or run the other way.
I would appreciate it if you answered using one of these outcomes: active, inactive

compound	assigned-class
O=C(Nc1ncc(CN2CCOCC2)s1)c1ccc(-c2cccc([N+](=O)[O-])c2)o1	active
Cc1c(P(=S)(c2ccccc2)c2ccccc2)[n+]2ccccc2n1C/C=C/c1ccc(C(F)(F)F)cc1	active
COc1ccc(C2Nc3ccccc3C(=O)N2CCc2ccccc2)cc1COc1ccc(NC(C)=O)cc1 (stereo not given)	active
COc1ccc(C2=Nn3c(nnc3-c3cccc(OC)c3OC)SC2)c(OC)c1	active
COc1ccc(-n2ccc(C(=O)NC(C)(C)C)n2)cc1	inactive
NCC(=O)Nc1ccc2c(c1)Oc1cc(NC(=O)CN)ccc1C21OC(=O)c2ccccc21	inactive

Query string: Each compound tested received a call. Report the one for "OCC1CCN(c2ccc3cc(Br)ccc3n2)CC1" .
Result string: active

Query string: Each compound tested received a call. Report the one for "Cc1ccc(N(C)S(=O)(=O)c2ccc(-c3cnc(C4CC4)o3)cc2)cc1" .
Result string: inactive

Query string: Each compound tested received a call. Report the one for "COc1c(F)cc2[nH]c(C(=O)O)cc2c1F" .
Result string: inactive

Query string: Each compound tested received a call. Report the one for "Nc1ccc(Cn2ccc3c4c(N)nc(N)nc4ccc32)cc1" .
Result string: inactive

* * *

# study-target: Retinaldehyde dehydrogenase 3 (Homo sapiens) (UniProt P47895)
# measurement-description: qHTS for Inhibitors of the Aldehyde Dehydrogenase Family (ALDH1A3) Primary screen (AID 2061315)
# condition-parameters: ALDH inhibition qHTS; series mostly up to 56 µM
Inconclusive results are not listed. Activity calls are given as the source filed them. The call rests on the fitted dose curve; in most records, active means well fitted inhibition curve with a large enough effect; inconclusive means small, poorly fitted or top-dose-only effect; inactive means no such curve, though single readings can be large or run the other way.
property-measured: activity change, negative = inhibition

Field: example entries. Status: answers known.
compound	property-measured	value-measured
O=[S+]([O-])(Nc1nccs1)c1ccc(NCc2cccc(Cl)c2)cc1	activity change, negative = inhibition	inactive
Cc1ccc(CN(C)c2ncnc3ccc(-c4ccc(C#N)n4C)cc23)o1	activity change, negative = inhibition	inactive
Cc1cc(C)nc(NC(=S)N2CCN(c3ccc(F)cc3F)CC2)c1	activity change, negative = inhibition	inactive
NC(=O)C1CCN(c2nc(-c3cccc4ccccc34)cs2)CC1	activity change, negative = inhibition	inactive
Cc1ccc(S(=O)(=O)Nc2ccc(C)cc2C(=O)Nc2nc(-c3ccccc3)cs2)cc1	activity change, negative = inhibition	inactive
CC(C)(C)OC(=O)N[C@@H](Cc1ccc(OS(=O)(=O)c2cccc3cnccc23)cc1)C(=O)N1CCCN(C(=O)OC(C)(C)C)CC1	activity change, negative = inhibition	inactive
Cc1cc(N[S+](=O)([O-])c2ccc(NC(=O)Cc3ccc4c(c3)CCCC4)cc2)no1	activity change, negative = inhibition	inactive
O=S(=O)(Nc1nccs1)c1ccc(NCc2ccccc2O)cc1	activity change, negative = inhibition	inactive

Query string: Provide activity change, negative = inhibition, recorded with Retinaldehyde dehydrogenase 3 (Homo sapiens) (UniProt P47895), of "CC[C@H]1OC(=O)[C@H](C)[C@@H](O[C@H]2C[C@@](C)(OC)[C@@H](O)[C@H](C)O2)[C@H](C)[C@@H](O[C@@H]2O[C@H](C)C[C@H](N(C)C)[C@H]2O)[C@](C)(O)C[C@@H](C)/C(=N/OCOCCOC)[C@H](C)[C@@H](O)[C@]1(C)O"
Result string: inactive

Query string: Provide activity change, negative = inhibition, recorded with Retinaldehyde dehydrogenase 3 (Homo sapiens) (UniProt P47895), of C=C1C(=O)OC2/C=C(\COC(C)=O)CC/C=C(\C=O)CC(OC(=O)C(C)CC)C12 (centres undefined)
Result string: inactive

Query string: Provide activity change, negative = inhibition, recorded with Retinaldehyde dehydrogenase 3 (Homo sapiens) (UniProt P47895), of "O=C1Nc2cc(Cl)ccc2/C1=C\c1cc(Cl)c(O)c(Cl)c1"
Result string: inactive

Query string: Provide activity change, negative = inhibition, recorded with Retinaldehyde dehydrogenase 3 (Homo sapiens) (UniProt P47895), of "COc1ccc(NC(=O)c2[nH]c(C)c(C(C)=O)c2C)cc1[S+](=O)([O-])Nc1ccccc1C#N"
Result string: inactive

Query string: Provide activity change, negative = inhibition, recorded with Retinaldehyde dehydrogenase 3 (Homo sapiens) (UniProt P47895), of "C=CCOc1cc(Cl)ccc1C(=O)NCCN(CC)CC"
Result string: inactive

Query string: Provide activity change, negative = inhibition, recorded with Retinaldehyde dehydrogenase 3 (Homo sapiens) (UniProt P47895), of "COc1ccc(C2=Nn3c(nnc3-c3ccccc3O)SC2)cc1OC"
Result string: inactive

Query string: Provide activity change, negative = inhibition, recorded with Retinaldehyde dehydrogenase 3 (Homo sapiens) (UniProt P47895), of "COc1ccc(CNc2ccc(-c3nc4ccccc4[nH]3)cc2)cc1OC"
Result string: inactive

Query string: Provide activity change, negative = inhibition, recorded with Retinaldehyde dehydrogenase 3 (Homo sapiens) (UniProt P47895), of "CC(C)(C)Cc1nnc(NC(=O)CSc2ccccc2)s1"
Result string: inactive

Query string: Provide activity change, negative = inhibition, recorded with Retinaldehyde dehydrogenase 3 (Homo sapiens) (UniProt P47895), of Cc1ccc(-c2ccc(=O)n(CC(=O)N(C)C(C)c3ccco3)c2)cc1 (centres undefined)
Result string: inactive

Query string: Provide activity change, negative = inhibition, recorded with Retinaldehyde dehydrogenase 3 (Homo sapiens) (UniProt P47895), of "O=C(COc1ccccc1Br)NCCc1nc2ccccc2[nH]1"
Result string: inactive

Query string: Provide activity change, negative = inhibition, recorded with Retinaldehyde dehydrogenase 3 (Homo sapiens) (UniProt P47895), of "Cc1csc(CNc2ncnc3ccc(-c4ccoc4)cc23)c1"
Result string: inactive

* * *

# measurement-description: qHTS for Inhibitors of the Aldehyde Dehydrogenase Family (ALDH1A2, ALDH1A3, ALDH2, ALDH3A1) (AID 2061307); also: nearly all actives have a fitted effect of over 50% in size
# condition-parameters: ALDH inhibition qHTS; series mostly up to 50.3 µM
Results filed as inconclusive are left out. Active and inactive are the calls of the source. Calls follow the shape of the dose curve; as a rule, active = well fitted inhibition curve with a large enough effect; inconclusive = small, poorly fitted or top-dose-only effect; inactive = no such curve, though single readings can be large or run the other way.
I would appreciate it if you answered using one of these outcomes: active, inactive

sample-smiles	assigned-class
Cc1noc(C)c1-c1cncc(C(=O)NCc2cccnc2)c1	inactive

Query string: Each compound tested received a call. Report the one for "COc1ccc(-c2cc(C(=O)Nc3ccc(C(N)=O)cc3F)sc2C)cc1" .
Result string: inactive

Query string: Each compound tested received a call. Report the one for "COc1cc(NS(=O)(=O)c2cccc([N+](=O)[O-])c2)c2ncccc2c1" .
Result string: active

Query string: Each compound tested received a call. Report the one for "COc1ccc(-c2cc(=O)n(-c3nc(C(=O)O)cs3)[nH]2)cc1" .
Result string: inactive

Query string: Each compound tested received a call. Report the one for "O=C(O)c1cccc(Nc2ncnc3sccc23)c1" .
Result string: inactive

Query string: Each compound tested received a call. Report the one for "CN(C)c1ccc(NC(=O)c2cn(-c3ccccc3)nn2)cn1" .
Result string: inactive

Query string: Each compound tested received a call. Report the one for "O=C(O)c1ccnc(-n2cc(Br)cn2)c1" .
Result string: inactive

Query string: Each compound tested received a call. Report the one for "Cc1ccc2c(=O)cc(C(=O)Nc3cccc(C(F)(F)F)c3)oc2c1C" .
Result string: inactive

Query string: Each compound tested received a call. Report the one for "CCOC(=O)c1c(C)n(-c2ccc(OC)cc2)c2ccc(O)cc12" .
Result string: inactive

Query string: Each compound tested received a call. Report the one for "CN1CCN(c2ccc(Nc3nn4c(=O)c5ccccc5nc4s3)cc2)CC1" .
Result string: inactive

Query string: Each compound tested received a call. Report the one for "Cc1ccc(-c2cc(C(=O)O)c3cccc(C)c3n2)cc1" .
Result string: active
